Target: SirT1 (Homo sapiens)
Sequence (Q96EB6 1-747): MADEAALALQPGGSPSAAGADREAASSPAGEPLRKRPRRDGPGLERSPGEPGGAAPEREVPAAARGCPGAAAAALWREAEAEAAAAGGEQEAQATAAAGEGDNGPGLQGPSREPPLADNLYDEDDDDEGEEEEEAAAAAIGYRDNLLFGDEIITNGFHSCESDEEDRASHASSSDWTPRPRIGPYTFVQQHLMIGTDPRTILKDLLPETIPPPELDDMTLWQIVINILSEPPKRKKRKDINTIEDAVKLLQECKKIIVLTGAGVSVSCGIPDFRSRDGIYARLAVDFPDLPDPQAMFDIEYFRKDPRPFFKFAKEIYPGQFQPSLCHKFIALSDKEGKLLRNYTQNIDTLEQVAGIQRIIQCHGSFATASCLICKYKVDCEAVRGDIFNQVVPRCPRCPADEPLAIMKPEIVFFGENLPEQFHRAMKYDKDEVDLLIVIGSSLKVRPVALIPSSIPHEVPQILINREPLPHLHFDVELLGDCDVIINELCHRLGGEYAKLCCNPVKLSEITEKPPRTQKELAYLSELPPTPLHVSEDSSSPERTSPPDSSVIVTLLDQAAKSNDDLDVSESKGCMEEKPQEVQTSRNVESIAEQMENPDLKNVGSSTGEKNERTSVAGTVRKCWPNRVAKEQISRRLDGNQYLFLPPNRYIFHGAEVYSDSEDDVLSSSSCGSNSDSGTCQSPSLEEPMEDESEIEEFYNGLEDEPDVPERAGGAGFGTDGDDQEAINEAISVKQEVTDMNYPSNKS
pIC50: −log10 of the molar value.
What pIC50 was measured for each of the following?

molecule="NC(=O)C1NCCc2c1[nH]c1ccc(Cl)cc21 (centres unmarked) [Compound 56]" test_value="< 5.00"

// below: pIC50 requested for another molecule
Lookup: Need pIC50 of CC(=O)N1CCc2c([nH]c3ccc(Cl)cc23)C1C(N)=O (centres unmarked) [Compound 58] , thanks.
Found: < 5.00
